# assay: Toxicity in clr:NU/NU-nuBR mouse assessed as maximum tolerated dose after 24 hrs
# Assay type: organism-based
# measurement parameters: in vivo
property label: MTD at 24 h (mg/kg)
Kindly answer with a numeric value in mg/kg, unit omitted.

[ask] What value of MTD at 24 h has been recorded for this entry: `CN1CC[C@H](N(C)C(=O)N2CC(c3cc(F)ccc3F)=C[C@@]2(CO)c2ccccc2)[C@H](F)C1`
[reply] 12

* * *

# assay: Dissociation constant, pKa by Sirius GLpKa titrator
# Type: physicochemical
Please provide measured pKa for the entries that follow.
Give the figure by itself; no unit, no explanation.

[ask] Look up pKa for this compound: `CN(C(=O)N1CC(c2cc(F)ccc2F)=C[C@@]1(CO)c1ccccc1)C1CCN(CC(F)F)CC1`
[reply] 4.9

[ask] Ok, now `CN(C(=O)N1CC(c2cc(F)ccc2F)=C[C@@]1(CO)c1ccccc1)C1CCN(C2CC2)CC1`
[reply] 7.5

[ask] // repeat for `CN1CC[C@H](N(C)C(=O)N2CC(c3cc(F)ccc3F)=C[C@@]2(CO)c2ccccc2)[C@H](F)C1` and report
[reply] 7.6

[ask] // query: `CN(C(=O)N1CC(c2cc(F)ccc2F)=C[C@@]1(CO)c1ccccc1)C1CCNCC1`
[reply] 9.8

[ask] Same thing, different compound: `CN(C(=O)N1CC(c2cc(F)ccc2F)=C[C@@]1(CO)c1ccccc1)C1CCN(CCF)CC1`
[reply] 7.6

[ask] What do you have for `CN1CC[C@H](N(C)C(=O)N2CC(c3cc(F)ccc3F)=C[C@@]2(CO)c2ccccc2)[C@@H](F)C1` ?
[reply] 6.6

[ask] Same thing, different compound: `CN1CCC(N(C)C(=O)N2CC(c3cc(F)ccc3F)=C[C@@]2(CO)c2ccccc2)CC1`
[reply] 8.8

[ask] # repeat for `CN(C(=O)N1CC(c2cc(F)ccc2F)=C[C@@]1(CO)c1ccccc1)C1CCN(CC2CC2)CC1`
[reply] 9.1

* * *

# System: Rattus norvegicus
# assay: AUC in rat at 4 mg/kg, iv
# Assay type: ADME, organism-based, Plasma
# Set-up: dose 4 mg/kg, route intravenous
# measurement parameters: in vivo
property label: AUC (µM·h)
Form entry: value (µM·h) — number only.

[ask] Entry under review: `CN(C(=O)N1CC(c2cc(F)ccc2F)=C[C@@]1(CO)c1ccccc1)C1CCN(CCF)CC1` . Reported AUC?
[reply] 2.5

* * *

# assay: Clearance in rhesus monkey at 0.4 mg/kg, iv
# Assay type: ADME, organism-based, Macaca mulatta
# Design: dose 0.4 mg/kg, route intravenous
# measurement parameters: in vivo
property label: clearance (mL/min/kg)
The answer is to be given in mL/min/kg; state only the numeric part.

[ask] Consider the compound `CN1CC[C@H](N(C)C(=O)N2CC(c3cc(F)ccc3F)=C[C@@]2(CO)c2ccccc2)[C@H](F)C1` and give its measured clearance.
[reply] 23.1
